# measured.on: Beta-1 adrenergic receptor (Homo sapiens)
# method.notes: Intrinsic activity against cloned human beta1-AR was measured as fractions of the maximal response
# Sequence (P08588 whole entry, looked up): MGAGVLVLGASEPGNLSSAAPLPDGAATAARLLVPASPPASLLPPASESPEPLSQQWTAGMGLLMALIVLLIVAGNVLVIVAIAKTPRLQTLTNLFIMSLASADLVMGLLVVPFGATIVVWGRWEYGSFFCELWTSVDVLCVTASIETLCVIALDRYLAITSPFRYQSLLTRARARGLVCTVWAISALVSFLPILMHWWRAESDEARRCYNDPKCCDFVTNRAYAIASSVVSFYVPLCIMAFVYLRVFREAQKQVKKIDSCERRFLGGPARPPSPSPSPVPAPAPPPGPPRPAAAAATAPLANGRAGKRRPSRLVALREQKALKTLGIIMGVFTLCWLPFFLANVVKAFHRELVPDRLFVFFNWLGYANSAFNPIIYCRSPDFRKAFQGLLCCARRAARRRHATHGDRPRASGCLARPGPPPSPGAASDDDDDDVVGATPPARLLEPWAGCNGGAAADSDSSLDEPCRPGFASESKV
# binarize Intrinsic activity: threshold 0.3 inclusive, high side Yes, low side No

Asked: Quick check, Intrinsic activity >= 0.3? COc1ccc(S(=O)(=O)N2CCC(NC[C@H](O)COc3ccc(O)cc3)CC2)cc1
Given back: Yes

Asked: Quick check, Intrinsic activity >= 0.3? COc1ccc(S(=O)(=O)N2CCC(NC[C@H](O)COc3cccc4[nH]c(O)nc34)CC2)cc1
Given back: Yes

Asked: Quick check, Intrinsic activity >= 0.3? CCCCOc1ccc(S(=O)(=O)N2CC(NC[C@H](O)c3ccc(O)cc3)C2)cc1
Given back: Yes

Further cases:
Asked: Quick check, Intrinsic activity >= 0.3? COc1ccc(S(=O)(=O)N2CCC(NC[C@H](O)COc3cccc4[nH]c5ccccc5c34)CC2)cc1
Given back: No

Asked: Quick check, Intrinsic activity >= 0.3? COc1ccc(S(=O)(=O)N2CCC(NC[C@H](O)COc3cccc4[nH]c5ccccc5c34)CC2)cc1OC
Given back: No

###

The following molecules are listed with their measured EC50 values.
# measured.on: Beta-1 adrenergic receptor (Homo sapiens)
# method.notes: Agonistic activity against cloned human beta1-AR (beta-1-adrenergic receptor) in CHO cells
# Format: functional, cell-based
# Sequence (P08588 whole entry): as the sequence (P08588 whole entry, looked up) above
I only need the number, in µM, no unit after it.

Before answering, review these 3 worked examples.
Asked: Specify EC50 for COc1ccc(S(=O)(=O)N2CCC(NC[C@H](O)COc3cccc4[nH]c5ccccc5c34)CC2)cc1 and stop.
Given back: 100

Asked: Specify EC50 for COc1ccc(S(=O)(=O)N2CCC(NC[C@H](O)COc3ccc(O)cc3)CC2)cc1 and stop.
Given back: 10.3

Asked: Specify EC50 for CCCCOc1ccc(S(=O)(=O)N2CC(NC[C@H](O)c3ccc(O)cc3)C2)cc1 and stop.
Given back: 1.6

Please turn your attention to the following entry.
Asked: Specify EC50 for CCCCCCNC(=O)Nc1ccc(S(=O)(=O)N2CCC(NC[C@H](O)c3ccc(O)c(NS(C)(=O)=O)c3)CC2)cc1 and stop.
Given back: 0.012

###

# measured.on: Beta-3 adrenergic receptor (Homo sapiens, UniProt P13945)
# Sequence (P13945 whole entry): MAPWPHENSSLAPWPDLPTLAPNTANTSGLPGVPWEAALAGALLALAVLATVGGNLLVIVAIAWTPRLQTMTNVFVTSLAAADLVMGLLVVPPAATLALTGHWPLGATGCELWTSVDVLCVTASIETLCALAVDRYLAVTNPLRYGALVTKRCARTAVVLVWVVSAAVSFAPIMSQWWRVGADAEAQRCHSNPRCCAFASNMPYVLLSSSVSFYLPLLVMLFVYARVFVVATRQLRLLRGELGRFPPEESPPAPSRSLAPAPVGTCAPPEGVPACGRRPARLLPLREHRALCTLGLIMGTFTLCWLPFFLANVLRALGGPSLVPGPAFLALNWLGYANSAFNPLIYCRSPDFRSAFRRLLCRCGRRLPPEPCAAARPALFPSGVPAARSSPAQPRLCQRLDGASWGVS
# method.notes: Agonistic activity against cloned human beta3-AR (beta-3-adrenergic receptor) in CHO cells
pEC50: −log10 of the molar value.
# binarize pEC50: threshold 7 inclusive, high side 1.0, low side 0.0

Asked: Quick check, pEC50 >= 7? CCCCOc1ccc(S(=O)(=O)N2CC(NC[C@H](O)COc3cccc4[nH]c5ccccc5c34)C2)cc1
Given back: 0.0

Asked: Quick check, pEC50 >= 7? CCCCCCNC(=O)Nc1ccc(S(=O)(=O)N2CCC(NC[C@H](O)COc3ccc(O)cc3)CC2)cc1
Given back: 0.0

Asked: Quick check, pEC50 >= 7? CCCCCCNC(=O)Nc1ccc(S(=O)(=O)N2CCC(NC[C@H](O)c3ccc(O)c(NS(C)(=O)=O)c3)CC2)cc1
Given back: 1.0

Further cases:
Asked: Quick check, pEC50 >= 7? O=c1[nH]c2cccc(OC[C@@H](O)CNC3CCN(S(=O)(=O)c4cccc5nsnc45)CC3)c2[nH]1
Given back: 0.0

Asked: Quick check, pEC50 >= 7? COc1ccc(S(=O)(=O)N2CCC(NC[C@H](O)COc3ccc(O)cc3)CC2)cc1
Given back: 1.0

###

The following molecules are listed with their measured EC50 values.
# measured.on: Beta-2 adrenergic receptor (Homo sapiens, UniProt P07550)
# Sequence (P07550 whole entry): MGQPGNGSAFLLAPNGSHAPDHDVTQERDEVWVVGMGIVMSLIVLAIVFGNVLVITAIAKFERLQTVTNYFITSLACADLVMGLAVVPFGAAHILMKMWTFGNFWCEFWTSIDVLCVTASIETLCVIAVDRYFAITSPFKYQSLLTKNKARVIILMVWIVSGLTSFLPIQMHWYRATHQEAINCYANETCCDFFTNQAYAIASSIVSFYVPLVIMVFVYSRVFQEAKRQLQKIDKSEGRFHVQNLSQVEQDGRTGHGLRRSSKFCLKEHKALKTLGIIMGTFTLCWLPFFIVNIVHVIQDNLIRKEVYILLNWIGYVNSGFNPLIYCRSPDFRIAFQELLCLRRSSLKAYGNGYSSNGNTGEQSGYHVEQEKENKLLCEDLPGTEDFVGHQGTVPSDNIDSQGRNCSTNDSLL
# method.notes: Agonistic activity against cloned human […] (beta-2-adrenergic receptor) in CHO cells

Before answering, review these 6 worked examples.
Asked: Specify EC50 for COc1ccc(S(=O)(=O)N2CCC(NC[C@H](O)COc3ccc(O)cc3)CC2)cc1 and stop.
Given back: > 100 µM

Asked: Specify EC50 for COc1ccc(S(=O)(=O)N2CCC(NC[C@H](O)COc3cccc4[nH]c(=O)[nH]c34)CC2)cc1 and stop.
Given back: > 100 µM

Asked: Specify EC50 for COc1ccc(S(=O)(=O)N2CCC(NC[C@H](O)COc3cccc4[nH]c5ccccc5c34)CC2)cc1 and stop.
Given back: > 100 µM

Asked: Specify EC50 for CCCCOc1ccc(S(=O)(=O)N2CC(NC[C@H](O)c3ccc(O)cc3)C2)cc1 and stop.
Given back: 0.92 µM

Asked: Specify EC50 for CCCCCCNC(=O)Nc1ccc(S(=O)(=O)N2CCC(NC[C@H](O)c3ccc(O)c(NS(C)(=O)=O)c3)CC2)cc1 and stop.
Given back: 0.92 µM

Asked: Specify EC50 for COc1ccc(S(=O)(=O)N2CCC(NC[C@H](O)COc3cccc4[nH]c5ccccc5c34)CC2)cc1OC and stop.
Given back: > 100 µM

Further cases:
Asked: Specify EC50 for COc1ccc(S(=O)(=O)N2CCC(NC[C@H](O)COc3cccc4[nH]c(=O)[nH]c34)CC2)cc1OC and stop.
Given back: > 100 µM

Asked: Specify EC50 for CCCCOc1ccc(S(=O)(=O)N2CCC(NC[C@H](O)COc3cccc4[nH]c5ccccc5c34)CC2)cc1 and stop.
Given back: > 100 µM

###

# measured.on: UniProt:P13945
# method.notes: Agonistic activity against cloned human beta3-AR (beta-3-adrenergic receptor) in CHO cells
attribute.measured: pEC50
By convention, pEC50 is the negative base-10 log of a molar concentration.

Asked: Specify pEC50 for COc1ccc(S(=O)(=O)N2CCC(NC[C@H](O)COc3cccc4[nH]c(=O)[nH]c34)CC2)cc1 and stop.
Given back: 6.92

Asked: Specify pEC50 for CCCCOc1ccc(S(=O)(=O)N2CCC(NC[C@H](O)c3ccc(O)c(NS(C)(=O)=O)c3)C2)cc1 (stereo partly drawn) and stop.
Given back: 6.44

Asked: Specify pEC50 for CCCCOc1ccc(S(=O)(=O)N2CC(NC[C@H](O)c3ccc(O)c(NS(C)(=O)=O)c3)C2)cc1 and stop.
Given back: 5.96

Asked: Specify pEC50 for CCC(C)(C)c1ccc(S(=O)(=O)N2CCC(NC[C@H](O)COc3cccc4[nH]c5ccccc5c34)CC2)cc1 and stop.
Given back: 6.04

Asked: Specify pEC50 for CCCCOc1ccc(S(=O)(=O)N2CC(NC[C@H](O)c3ccc(O)cc3)C2)cc1 and stop.
Given back: 7.52

Please turn your attention to the following entry.
Asked: Specify pEC50 for CCCCCCNC(=O)Nc1ccc(S(=O)(=O)N2CCC(NC[C@H](O)COc3cccc4[nH]c(=O)[nH]c34)CC2)cc1 and stop.
Given back: 7.44

###

# measured.on: Beta-1 adrenergic receptor (Homo sapiens, UniProt P08588)
# method.notes: Intrinsic activity against cloned human beta1-AR was measured as fractions of the maximal response
The following compounds are listed with their measured Intrinsic activity values.
Respond with the number and no other words.

Before answering, review these 2 worked examples.
Asked: Specify Intrinsic activity for CCCCCCNC(=O)Nc1ccc(S(=O)(=O)N2CCC(NC[C@H](O)c3ccc(O)c(NS(C)(=O)=O)c3)CC2)cc1 and stop.
Given back: 0.66

Asked: Specify Intrinsic activity for CCCCOc1ccc(S(=O)(=O)N2CCC(NC[C@H](O)COc3cccc4[nH]c5ccccc5c34)CC2)cc1 and stop.
Given back: 0.04

Further cases:
Asked: Specify Intrinsic activity for COc1ccc(S(=O)(=O)N2CCC(NC[C@H](O)COc3cccc4[nH]c(O)nc34)CC2)cc1OC and stop.
Given back: 0.33

###

# measured.on: Beta-1 adrenergic receptor (Homo sapiens)
# method.notes: Agonistic activity against cloned human beta1-AR (beta-1-adrenergic receptor) in CHO cells
pEC50: −log10 of the molar value.
attribute.measured: pEC50

Asked: Specify pEC50 for COc1ccc(S(=O)(=O)N2CCC(NC[C@H](O)COc3cccc4[nH]c5ccccc5c34)CC2)cc1OC and stop.
Given back: < 4.00

Asked: Specify pEC50 for COc1ccc(S(=O)(=O)N2CCC(NC[C@H](O)COc3cccc4[nH]c(=O)[nH]c34)CC2)cc1OC and stop.
Given back: < 4.00

Asked: Specify pEC50 for CCCCOc1ccc(S(=O)(=O)N2CCC(NC[C@H](O)COc3cccc4[nH]c5ccccc5c34)CC2)cc1 and stop.
Given back: < 4.00

Further cases:
Asked: Specify pEC50 for COc1ccc(S(=O)(=O)N2CCC(NC[C@H](O)COc3cccc4[nH]c(=O)[nH]c34)CC2)cc1 and stop.
Given back: < 4.00

###

# measured.on: Beta-3 adrenergic receptor (Homo sapiens)
# method.notes: Agonistic activity against cloned human beta3-AR (beta-3-adrenergic receptor) in CHO cells
The following compounds are listed with their measured EC50 values.
I only need the number, in nM, no unit after it.

Asked: Find the measured EC50 of COc1ccc(S(=O)(=O)N2CCC(NC[C@H](O)COc3cccc4[nH]c(=O)[nH]c34)CC2)cc1OC with Beta-3 adrenergic receptor (Homo sapiens) as test system.
Given back: 90

Asked: Find the measured EC50 of CS(=O)(=O)Nc1cc([C@@H](O)CNC2CCN(S(=O)(=O)c3ccc4oc5ccccc5c4c3)CC2)ccc1O with Beta-3 adrenergic receptor (Homo sapiens) as test system.
Given back: 120

Further cases:
Asked: Find the measured EC50 of O=c1[nH]c2cccc(OC[C@@H](O)CNC3CCN(S(=O)(=O)c4ccc5oc6ccccc6c5c4)CC3)c2[nH]1 with Beta-3 adrenergic receptor (Homo sapiens) as test system.
Given back: 70

Values compiled from ChEMBL document CHEMBL1145724.
